Can you tell me cytotoxicity at 70.5 h for the items I'm about to list?
METHOD_NOTES: Human HepG2 cell viability assay in 384 well format
Type: toxicity, cell-based
Parameters: dose 125 nL, time 70.5 hour; concentration not given beside the values
DETAILS: HepG2 cells, read-out: Inhibition
// return the numeric value with its unit appended

Known cytotoxicity at 70.5 h results, listed for orientation:
O=C(c1ccon1)N1CCc2ncnc(NCc3cccnc3)c2CC1; -5.39%
O=C(CCNS(=O)(=O)c1cccnc1)N1CCCCC1; 15.8%
O=C(NCCCNc1ccc(C(F)(F)F)cn1)c1ccc(F)cc1; -18.9%
Cc1ccc(NS(=O)(=O)CC2=NC(=O)n3cccc3C2=O)cc1; -36.1%
CC(c1cn2ccsc2n1)N1Cc2ncccc2C1=O (stereo unspecified); -4.52%

Now take the following molecule into account.
## Task Could you share which cytotoxicity at 70.5 h value was measured for COCC(=O)Nc1ccccc1-c1ccc(=O)n(C)n1 ?
## Result -4.15%

Data origin: ChEMBL document CHEMBL3507680
